molecular target: Serine/threonine-protein kinase pim-1 (Homo sapiens); assay: Inhibition of human recombinant His6-tagged PIM1 expressed in Sf21 cells using RSRHSSYPAGT as substrate after 30 mins
Sequence (P11309 whole entry): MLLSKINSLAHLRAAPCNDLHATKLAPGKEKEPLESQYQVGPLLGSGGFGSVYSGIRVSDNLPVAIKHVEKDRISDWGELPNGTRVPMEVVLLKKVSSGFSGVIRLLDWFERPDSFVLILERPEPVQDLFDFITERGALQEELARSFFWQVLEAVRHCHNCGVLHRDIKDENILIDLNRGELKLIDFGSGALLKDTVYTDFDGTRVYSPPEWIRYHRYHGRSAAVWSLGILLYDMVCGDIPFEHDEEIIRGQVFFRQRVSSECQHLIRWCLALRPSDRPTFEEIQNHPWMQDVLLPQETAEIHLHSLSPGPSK
Hi there, I'd appreciate the recorded pIC50 for every entry that follows.
One number for each entry, as −log10 of the molar value.

Example results:
[[record]]
molecule = "O=Cc1cn2c3c1ccc1c4ccccc4n(c13)CCCC2"
measurement_name = "pIC50"
reported_value = 8.10

[[record]]
molecule = "[N-]=[N+]=NCCCCn1c2ccccc2c2ccc3c(C=O)c[nH]c3c21"
measurement_name = "pIC50"
reported_value = 6.98


Dear colleague, could you please provide pIC50 for the compounds listed below?
1. C[N+](C)(CCO)Cc1cn(CCCCn2c3ccccc3c3ccc4c(C=O)c[nH]c4c32)nn1
2. O=Cc1c[nH]c2c1ccc1c3ccccc3n(CCCCn3cc(CO)nn3)c12

1. 6.49
2. 6.50
